Just for reference, paper PMC7587356 is where these values come from.

molecular target: SARS-CoV-2 3CLpro (Severe acute respiratory syndrome coronavirus 2); assay: biochemical; assay type: biochemical; design: unit not given here; conditions: sheet LOPAC_screen_w_protease; primary screen with protease, compound at 5 µM; mean of two replicates
Form field: mean (one value per entry).
Please state the value as a number alone, without comment.

Example entries begin here.
{"columns": ["MOLECULE", "REPORTED_METRIC", "DATA_VALUE"],
 "data": [
  ["CCN(CC)C(C)C(=O)N1c2ccccc2Sc2ccccc21.Cl (centres unmarked)", "mean", 2.78],
  ["CC(C)NNC(=O)c1ccncc1.O=P(O)(O)O [Iproniazid phosphate]", "mean", 2.591]
]}

Query block: Which measured mean belongs to N#Cc1c(-c2ccccc2)no[n+]1[O-] [4-Phenyl-3-furoxancarbonitrile] , tested on SARS-CoV-2 3CLpro (Severe acute respiratory syndrome coronavirus 2)?
Result block: 2.827

Query block: Cn1c(=O)c2[nH]c(-c3ccc(S(=O)(=O)O)cc3)nc2n(C)c1=O [8-(p-Sulfophenyl)theophylline] , same question.
Result block: 3.141

Query block: Try this molecule next: `Cc1cccc(C#Cc2ccccc2)n1.Cl`
Result block: 3.1043
